Recorded IC50 values for a group of molecules are listed next.
# test system: hMGL (Homo sapiens (Human), UniProt Q99685)
# Sequence (Q99685 whole entry): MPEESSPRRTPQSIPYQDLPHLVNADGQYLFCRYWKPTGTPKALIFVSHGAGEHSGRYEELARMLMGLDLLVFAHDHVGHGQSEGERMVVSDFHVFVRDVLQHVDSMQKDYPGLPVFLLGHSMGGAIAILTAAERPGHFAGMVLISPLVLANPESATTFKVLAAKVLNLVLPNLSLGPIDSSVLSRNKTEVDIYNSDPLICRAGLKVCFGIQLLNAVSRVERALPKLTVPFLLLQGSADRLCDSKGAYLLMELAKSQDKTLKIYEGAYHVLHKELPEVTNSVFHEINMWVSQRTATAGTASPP
# assay explanation: Fluorescent assay for hMGL (AHMMCE substrate hydrolysis)
# stated conditions: E. coli lysate containing hMGL, read-out: hMGL Inhibition IC50

Consider the following illustrative entries.
O=C(OC(C(F)(F)F)C(F)(F)F)N1CCc2c(Br)cccc2C1 ... > 1000 nM
O=C(COc1ccc2c(c1)CN(C(=O)OC(C(F)(F)F)C(F)(F)F)C2)N1CCOCC1 ... 10 to 100 nM
O=C(OC(C(F)(F)F)C(F)(F)F)N1Cc2ccc(N3CCCC3)cc2C1 ... > 1000 nM
COc1ccc2c(c1)CCN(C(=O)OC(C(F)(F)F)C(F)(F)F)C2 ... > 1000 nM
O=C(OC(C(F)(F)F)C(F)(F)F)N1Cc2ccc(OCCN3CCCC3)cc2C1 ... 10 to 100 nM
O=C1C2CC2C(=O)N1ON1CCc2c(Br)cccc2C1 (stereo not drawn) ... > 1000 nM
CC1(C)C2C(=O)N(OC(=O)N3CCc4c(Br)cccc4C3)C(=O)C21 (stereo not drawn) ... > 1000 nM
O=C(OC(C(F)(F)F)C(F)(F)F)N1CCCc2ccccc2C1 ... > 1000 nM

INPUT: What value of IC50 has been reported for the following molecule? O=C(OC(C(F)(F)F)C(F)(F)F)N1Cc2ccc(Br)cc2C1
OUTPUT: > 1000 nM
